The listing below reports pIC50 for compounds tested on Human immunodeficiency virus type 1 reverse transcriptase (Human immunodeficiency virus 1).
Units for pIC50: none; it is -log10 of a concentration expressed in mol/L.

Problem: Requested field: pIC50. Item: O=S(=O)(O)c1ccc2c(OS(=O)(=O)c3cccc4c(S(=O)(=O)Oc5cc(S(=O)(=O)O)cc6cc(S(=O)(=O)O)ccc56)cccc34)cc(S(=O)(=O)O)cc2c1
Result: 3.67

Problem: Requested field: pIC50. Item: CCCCCCCCCCCCCCCC(=O)Nc1c(O)cc(S(=O)(=O)O)c2ccccc12
Result: 4.32

Problem: Requested field: pIC50. Item: O=C(Oc1cc(S(=O)(=O)O)cc2cc(S(=O)(=O)O)ccc12)c1ccc(-c2ccc(C(=O)Oc3cc(S(=O)(=O)O)cc4cc(S(=O)(=O)O)ccc34)cc2)cc1
Result: 4.84

Problem: Requested field: pIC50. Item: CCCCCCCCCCCCCCCC(=O)Nc1ccc(S(=O)(=O)O)c2cccc(S(=O)(=O)O)c12
Result: 4.56

----------
Target Or System: Human immunodeficiency virus type 1 reverse transcriptase (Human immunodeficiency virus 1) (UniProt Q72547)
Measurement Protocol: Inhibition of Ribonuclease H activity of HIV-1 reverse transcriptase (at 200 uM)
Decision: Initial activity >= 50% yields Condition met, all other cases yield Condition not met.

CCCCCCCCCCCCCCCC(=O)Nc1ccc(S(=O)(=O)O)c2cccc(S(=O)(=O)O)c12 = Condition not met
CCCCCCCCCCCCCCCC(=O)Nc1ccc(S(=O)(=O)O)c2ccccc12 = Condition met
O=S(=O)(O)c1cccc2ccc(OS(=O)(=O)c3ccc(-c4ccc(S(=O)(=O)Oc5ccc6cccc(S(=O)(=O)O)c6c5)cc4)cc3)cc12 = Condition not met
O=C(CCCCCCCCCCC(=O)Nc1ccc(S(=O)(=O)O)c2ccccc12)Nc1ccc(S(=O)(=O)O)c2ccccc12 = Condition not met
Cc1cc(C)c(S(=O)(=O)Nc2cc(C(=O)O)c(O)c(S(=O)(=O)O)c2)c(C)c1S(=O)(=O)Nc1cc(C(=O)O)c(O)c(S(=O)(=O)O)c1 = Condition not met

Problem: Please check the record O=S(=O)(O)c1cc(S(=O)(=O)O)c2cc(NS(=O)(=O)c3ccc(-c4ccc(S(=O)(=O)Nc5ccc6cc(S(=O)(=O)O)cc(S(=O)(=O)O)c6c5)cc4)cc3)ccc2c1 and state if its Initial activity is at or above 50%.
Result: Condition not met

----------
Documented EC50 across a set of compounds
System: MT4
Measurement Protocol: 50% effective antiviral concentration was determined on HIV-1 (HTLV-IIIB) in MT-4 cells
Type: functional, cell-based
Condition Summary: Homo sapiens
// return numeric value only (unit: µM, not printed)

Example entries and their recorded answers appear below.
O=C(Oc1cc(S(=O)(=O)O)cc2cc(S(=O)(=O)O)ccc12)c1ccc(-c2ccc(C(=O)Oc3cc(S(=O)(=O)O)cc4cc(S(=O)(=O)O)ccc34)cc2)cc1 = 81.5
O=S(=O)(O)c1ccc2c(OS(=O)(=O)c3cccc4c(S(=O)(=O)Oc5cc(S(=O)(=O)O)cc6cc(S(=O)(=O)O)ccc56)cccc34)cc(S(=O)(=O)O)cc2c1 = 39
CCCCCCCCCCCCCCCC(=O)Nc1ccc(S(=O)(=O)O)c2cccc(S(=O)(=O)O)c12 = 100
Cc1cc(C)c(S(=O)(=O)Oc2ccc3cccc(S(=O)(=O)O)c3c2)c(C)c1S(=O)(=O)Oc1ccc2cccc(S(=O)(=O)O)c2c1 = 42

Now look at this one.
Problem: Requested field: EC50. Item: O=C(CCCCCCCCCCC(=O)Nc1ccc(S(=O)(=O)O)c2ccccc12)Nc1ccc(S(=O)(=O)O)c2ccccc12
Result: 260

Source of measurements: ChEMBL document CHEMBL1127605
